Test: Tolerability in Sprague-Dawley rats: hematology assays (Example 35)
Settings: 50 mg/kg s.c. twice per week for 6 weeks
metric: RBC

RBC reading for ISIS 416838: MOE gapmer, nucleobases 1018 to 1042 of SEQ ID NO: 1 (Table 6) (antisense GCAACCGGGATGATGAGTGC; MOE gapmer, wing and gap sizes not given here) : 4

Briefly, RBC measured for ISIS 416858: MOE gapmer, nucleobases 1275 to 1318 of SEQ ID NO: 1 (Table 8) (antisense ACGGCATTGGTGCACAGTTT; MOE gapmer, wing and gap sizes not given here) : 2

The substance listed as ISIS 417002: MOE gapmer, nucleobases 1275 to 1318 of SEQ ID NO: 1 (Table 8) (antisense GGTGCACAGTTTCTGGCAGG; MOE gapmer, wing and gap sizes not given here) has a reported RBC of 5

###

Below, each entry is listed with its recorded hemoglobin.
Assay: Hematology assays in cynomolgus monkeys (Example 45)
Assay type: in vivo
Settings: day 8; escalating dose regimen
Record the value in g/dL, omitting the unit from your answer.

// known answers, use as guide
ISIS 416864: MOE gapmer, nucleobases 1275 to 1318 of SEQ ID NO: 1 (Table 8) (antisense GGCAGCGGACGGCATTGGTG; MOE gapmer, wing and gap sizes not given here) : 12.7
ISIS 416850: MOE gapmer, nucleobases 1275 to 1318 of SEQ ID NO: 1 (Table 8) (antisense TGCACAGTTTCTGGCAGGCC; MOE gapmer, wing and gap sizes not given here) : 12.4

hemoglobin recorded for this substance, ISIS 416858: MOE gapmer, nucleobases 1275 to 1318 of SEQ ID NO: 1 (Table 8) (antisense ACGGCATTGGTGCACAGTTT; MOE gapmer, wing and gap sizes not given here) , is 12.8

Entry ISIS 417002: MOE gapmer, nucleobases 1275 to 1318 of SEQ ID NO: 1 (Table 8) (antisense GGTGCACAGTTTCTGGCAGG; MOE gapmer, wing and gap sizes not given here) ; hemoglobin = 12.8

The recorded hemoglobin for ISIS 416838: MOE gapmer, nucleobases 1018 to 1042 of SEQ ID NO: 1 (Table 6) (antisense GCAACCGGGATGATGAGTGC; MOE gapmer, wing and gap sizes not given here) is 12.9

###

MCHC values by entry
Assay: Hematology assays in cynomolgus monkeys (Example 46)
Assay type: in vivo
Conditions: Day 55
Strand notation (5' to 3'): a small letter for the sugar, then the base; units joined by * are phosphorothioate-linked, units joined directly phosphodiester-linked; [ ] holds rarer units or linkages, { } end groups; capitals alone tell only the bases. e = 2'-O-(2-methoxyethyl) (MOE); [5mC] = 5-methylcytosine; d = 2'-deoxy (DNA)
// units = g/dL; emit number, no label

Solved entries (count: 2):
ISIS 449711: 3-8-3, 4-8-4, 2-10-2, 3-10-3 or 4-10-4 MOE microwalk gapmer (Table 46) (antisense eA*e[5mC]*dA*dG*dT*dT*dT*d[5mC]*dT*dG*dG*d[5mC]*eA*eG) : 29.5
ISIS 445531: 5-8-5 or 6-8-6 MOE microwalk gapmer (Table 44) (antisense eG*eG*e[5mC]*eA*eT*dT*dG*dG*dT*dG*d[5mC]*dA*d[5mC]*eA*eG*eT*eT*eT) : 29.6

// moving on: another record for MCHC
// field: MCHC; key: ISIS 449709: 3-8-3, 4-8-4, 2-10-2, 3-10-3 or 4-10-4 MOE microwalk gapmer (Table 46) (antisense eG*e[5mC]*eA*e[5mC]*dA*dG*dT*dT*dT*d[5mC]*dT*dG*dG*d[5mC]*eA*eG*eG*e[5mC]) ; value = 31.2
